# protocol.description: Metabolic stability in mouse liver microsomes
# run.parameters: mouse, liver microsomes, pH 7.4
readout.type: half-life at 1 μM

1) CC(C)(C)C(=O)OCOP(=O)(/C=C/CN(O)C(=O)c1ccccc1)OCOC(=O)C(C)(C)C [13a]	< 5 min

###

# study.system: P. falciparum DXR (Plasmodium falciparum, UniProt O96693)
# Sequence (O96693 73-488): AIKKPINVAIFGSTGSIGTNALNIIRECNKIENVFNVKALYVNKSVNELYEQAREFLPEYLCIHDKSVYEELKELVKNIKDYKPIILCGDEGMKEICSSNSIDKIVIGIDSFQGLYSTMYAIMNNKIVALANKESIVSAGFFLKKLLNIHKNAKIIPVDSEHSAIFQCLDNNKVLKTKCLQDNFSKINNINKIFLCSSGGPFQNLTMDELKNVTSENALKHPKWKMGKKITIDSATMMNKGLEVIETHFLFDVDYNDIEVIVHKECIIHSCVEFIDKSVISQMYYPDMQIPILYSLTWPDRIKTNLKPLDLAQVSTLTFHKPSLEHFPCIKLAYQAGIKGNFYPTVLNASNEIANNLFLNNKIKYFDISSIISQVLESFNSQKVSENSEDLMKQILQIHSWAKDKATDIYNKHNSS
# run.parameters: read-out: Pf DXR IC50
readout.type: IC50 (nM)

1) O=C(CCCc1ccccc1)N(O)C/C=C/P(=O)(O)O [11d]	898

###

# Tested on: P. falciparum strain 3D7
# protocol.description: P. falciparum growth inhibition assay
# Assay type: cell-based, Plasmodium falciparum
# run.parameters: read-out: Pf IC50; […], 3 days, PicoGreen
pIC50: −log10 of the molar value.
readout.type: pIC50

1) CC(=O)N(O)CCCP(=O)(O)O [compound 2, FR-900098, reference compound]	6.29
